Please go through the items and note down their growth inhibition.
Assay: NCI Yeast Anticancer Drug Screen. Data for the mlh1 rad18 strain (AID 175)
Details: S. cerevisiae mlh1 rad18 strain growth inhibition; at 50.0 µM (retest, dose inferred, filed as 5.0); stronger effect = higher value
This is part of a sample that, as a whole, favours compounds with a hit. Of some 79,000 tested, about 15% had one in any assay. The source made the active and inactive calls. Cut-off read from the data, not from the text of the source: active = growth inhibition above about 70%; inactive = the rest.

Example molecules with recorded growth inhibition:
COc1ccc(/C=C(\C(=O)c2ccc(O)cc2)c2ccccc2)cc1OC :: 99% (active)
COc1cccc(C2c3cc4c(cc3OC(NNc3ccccc3)C2C)OCO4)c1O (stereo unspecified) :: 91% (active)

Provide reported growth inhibition for each item, in the same order as listed.
1. CC(C)C1=CC23CCC4C(C)(C(=O)O)CCCC4(C)C2CC1C(C(=O)O)C3C(=O)O (stereo unspecified)
2. O=S(=O)(CC(Br)CCl)c1ccccc1 (stereo unspecified)
3. CCCCCCCCCCCC(=O)OCC1OC(OC)C(NC(=O)N(CCCl)N=O)C(O)C1O (stereo unspecified)
4. CCOC(=O)/C(=C/c1ccc(Cl)cc1)N(CC)CC

98% (active)
76% (active)
14% (inactive)
-2% (inactive)

###

Assay: NCI Yeast Anticancer Drug Screen. Data for the mlh1 rad18 strain (AID 175)
Conditions: S. cerevisiae mlh1 rad18 strain growth inhibition; at 50.0 µM (retest, dose inferred, filed as 5.0); stronger effect = higher value
Compounds without any hit were thinned out: in the full panel of roughly 79,000, 15% have a hit. The source made the active and inactive calls. Cut-off read from the data, not from the text of the source: active = growth inhibition above about 70%; inactive = the rest.
What growth inhibition was measured for each of the following?

Worked set:
C[n+]1c(-c2cccc(OCCCCCCCCCCOc3cccc(-c4c5cc(N)ccc5c5ccc(N)cc5[n+]4C)c3)c2)c2cc(N)ccc2c2ccc(N)cc21 :: 68% (inactive)
NC(=O)NCCCCC1NC(=S)N(c2ccccc2)C1=O (stereo not drawn) :: -8% (inactive)
COc1ccccc1NC(c1ccccc1)c1ccc2cccnc2c1O (stereo not drawn) :: 44% (inactive)
O=C(O)NCc1ccccc1 (tested in a mixture with another compound) :: 80% (active)
Nc1ccccc1Sc1ccccc1 :: 78% (active)

Hi team, please reply with growth inhibition for each item in this list.
1. C=C1C(O)C2(O)OCC34C(CC5C(C)=CC(=O)C(O)C5(C)C23)OC(=O)C(OC(=O)C/C=C(\C)CCCCC)C14 (stereo not drawn)
2. COC(=O)c1ccccc1NC(=S)NN(C)C
3. CN(C)c1ccc(C=Nc2ccc(OCCCCCCCCCCC(=O)O)cc2)cc1
4. Cc1ccc(Cc2nc(=S)[nH][nH]2)cc1

1. 98% (active)
2. 28% (inactive)
3. 100% (active)
4. 21% (inactive)

###

Test: NCI Yeast Anticancer Drug Screen. Data for the sgs1 mgt1 strain (AID 161);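 note: 0% = growth of cultures given vehicle only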
Details: S. cerevisiae sgs1 mgt1 strain, at 5.0 µM (retest, dose inferred, filed as 0.5)
The panel holds about 79,000 compounds, 15% with a hit somewhere; the sample as a whole holds those more often. The source made the active and inactive calls. Cut-off read from the data, not from the text of the source: active = growth inhibition above about 70%; inactive = the rest.
Use one of these outcomes when replying: Yes for active, No for inactive

Cc1nc(Nc2ccc(Cl)cc2)sc1C(=O)NNc1ccc([N+](=O)[O-])cc1[N+](=O)[O-] :: No

Status in this test for `Cc1c(C)c(C)c(C(=O)c2ccccc2C(=O)NCCSC(C)(C)C)c(C)c1C` ? No

Given `COc1ccc(NCCN(C)C)c2c(=O)c3ccccc3sc12` , state the outcome it received in this test. No

Please let me know the test result on file for `O=C1c2ccccc2C(=O)c2c1ccc(C(=O)O)c2-c1ccc2ccccc2c1` . No

Recorded test outcome, item `O=C1c2ccccc2C(=O)c2c1ccc(O)c2O` Yes

###

Assay: NCI Yeast Anticancer Drug Screen. Data for the bub3 strain (AID 167)
Details: S. cerevisiae bub3 mutant strain, at 50.0 µM, stronger effect = higher value
About 79,000 compounds went through this panel and 15% of them were active in at least one assay; those are over-represented in the sample as a whole.
# if value of growth inhibition reaches 80%, tag label 1; if it stays below, tag label 0

The examples below pair each entry with its known result.
CC(=O)Nc1ccc2c(c1)Cc1cccc(F)c1-2 :: label 0
Clc1cccc(Cl)c1C(Nc1nncs1)Nc1nncs1 :: label 0
Nc1ccc(-c2cccc(-c3ccccc3)c2)cc1 :: label 1
OC1(c2ccccc2)CN(CCl)CC(c2ccccc2)O1 (configuration not stated) :: label 0
OC1(c2ccccc2)c2ccccc2Sc2ccccc21 :: label 1
CCCN1CN(C(C(=O)N[C@@H]2C(=O)N3C(C(=O)O)=C(C)CSC23)c2ccccc2)CSC1=S (some centres not stated) :: label 0

Decide: is the reported value of growth inhibition for `O=C(O)c1cccc2c1Oc1c(cccc1C(=O)O)S2` equal to or greater than 80%? label 1

Given `Oc1cccc2c(Br)ccnc12` , state whether its growth inhibition is at least 80%. label 1

###

Experiment: NCI Yeast Anticancer Drug Screen. Data for the mlh1 rad18 strain (AID 175)
Details: S. cerevisiae mlh1 rad18 strain growth inhibition; at 50.0 µM
About 79,000 compounds went through this panel and 15% of them were active in at least one assay; those are over-represented in the sample as a whole. Activity calls are given as the source filed them. No stated cut-off is given here; in the data, active means growth inhibition above about 70%; inactive means the rest.
# output must be one of active, inactive

See these solved cases before continuing.
O=C1C(CN2CCCC2)C(O)=C(c2ccccc2)N1c1ccccc1 (centres undefined) :: inactive
OCCc1ccccc1C(c1ccccc1)c1ccccc1 :: active
O=C(O)/C=C/c1c2ccccc2cc2ccccc12 :: active
COc1ccccc1NC(=O)/C(=C/c1ccccc1)C(C)=O :: inactive
O=C(O)C1(Cc2ccc3c(c2)CCC3)Cc2cc3c(cc2C1)CCC3 :: active
COc1ccc(/C=C(\C(=O)c2ccc(O)cc2)c2ccccc2)cc1OC :: active
CCOC(=O)C(CCOC)C(=O)OCC :: inactive
O=c1[nH]c2ccccc2c2cccc(F)c12 :: active
CCOC(=O)C1=C(c2ccccc2)SC(c2ccccc2)N(C(C)C)C1=O (centres undefined) :: active
Cc1ccc2c(c1C)-c1c(ccc(C)c1C)C(=O)C2=O :: active

# fetch the recorded call for `O=C(Nc1cccc(Cl)c1)Oc1c(Br)cc(Br)cc1Br` here active

Per the assay record, what outcome was assigned to `Cc1ccc(Cc2nc(=S)[nH][nH]2)cc1` ? inactive

For `CN(C)C(N)=NC#N` , what call appears in the results of this test? inactive

Which outcome did this test record for the compound `Nc1cccc2c1C(=O)c1cccc(Cl)c1C2=O` ? inactive

Entry `COc1ccc2c(c1)c(=O)c1c(NCCN(C)C)ccc3nnn2c31` : call = ? active

Hey, what did the test say about O=C(O)C1C(C(=O)O)C2C(=O)C=CC1N2Cc1ccccc1 (centres undefined) ? active

###

Test: NCI Yeast Anticancer Drug Screen. Data for the rad50 strain (AID 155);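 note: 0% = growth of vehicle-only cultures of the same strain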
Details: S. cerevisiae rad50 strain growth inhibition; at 5.0 µM (retest, dose inferred, filed as 0.5); stronger effect = higher value
Protocol: Growth inhibition of yeast strains with defined genetic alterations is measured as a screen for potential anti-cancer activity. Selected strains with alterations in DNA damage repair or cell cycle control were exposed to compounds and growth inhibition was measured relative to vehicle treated controls. The strain used in this assay is rad50
The panel holds about 79,000 compounds, 15% with a hit somewhere; the sample as a whole holds those more often.
For each entry below, report its growth inhibition value.
Give bare numbers, in %.

Please review the entries below; each comes with its answer.
Cc1c2c(c(C)c3c4c(oc13)CCCC4)C=NCC2 :: -4
O=NN(CCCl)C(=O)NCCSSCCNC(=O)N(CCCl)N=O (tested in a mixture with another compound) :: 29

Hey, can you go through the list below and give me growth inhibition for every item?
1. C=C(c1ccc2nc(NC(=O)OC)[nH]c2c1)c1cccs1
2. CNC1C(O)C(NC)C2OC3(O)C(=O)CC(C)OC3OC2C1O (stereo unspecified)
3. CC(=O)Oc1c([N+](=O)[O-])cc(-c2ccccc2)cc1[N+](=O)[O-]
4. COc1ccc2c(C)cc(N/N=C/c3cccc(C)n3)nc2c1

[-4, -7, 18, -1]

###

Test: NCI Yeast Anticancer Drug Screen. Data for the bub3 strain (AID 167)
Details: S. cerevisiae bub3 mutant strain, at 50.0 µM (retest, dose inferred, filed as 5.0)
This is part of a sample that, as a whole, favours compounds with a hit. Of some 79,000 tested, about 15% had one in any assay. Activity calls are given as the source filed them. Rule as the data show it: active = growth inhibition above about 70%; inactive = the rest.
Respond using exactly one of the listed classes: YES for active, NO for inactive

COc1ccccc1NC(=O)/C(=C/n1c(=S)sc2ccccc21)C(C)=O :: NO
CC1CCCC(C)C1=O (stereo not given) :: NO
O=C1/C(=C/c2ccc([N+](=O)[O-])cc2)CNC/C1=C\c1ccc([N+](=O)[O-])cc1 :: YES
Cc1ccc(S(=O)(=O)NNC2Oc3cc4c(cc3C(c3ccccc3O)C2C)OCO4)cc1 (stereo not given) :: YES
COc1ccc(Cc2nc3ccccc3s2)cc1OC :: YES
COc1ccc(CCCC(=O)O)c2c(OC)cccc12 :: NO
O=C1CNCCCN2CCN(CCCNCC(=O)Nc3ccc(cc3)S(=O)(=O)c3ccc(cc3)NC(=O)CNCCCN3CCN(CCCNCC(=O)Nc4ccc(cc4)S(=O)(=O)c4ccc(cc4)N1)CC3)CC2 :: YES
N#Cc1c2c(c(N=[N+]=[N-])n3c1nc1ccccc13)CCCC2 :: YES

Called result for `N#CC1(C#N)C(C#N)(C#N)C12CCC2` YES

Any idea what this test logged for `CCOc1nc(N)nc(C)c1N=Nc1ccc(Cl)cc1Cl` ? YES

The measurements presented in this section are drawn from PubChem BioAssay (NCI).
